Reference source for all entries: the kinase profiling compilation of Christmann-Franck et al. (2016)

Molecular target: MAP3K7 TAB1 (human) (UniProt Q15750+O43318)
Sequence (O43318 whole entry, looked up): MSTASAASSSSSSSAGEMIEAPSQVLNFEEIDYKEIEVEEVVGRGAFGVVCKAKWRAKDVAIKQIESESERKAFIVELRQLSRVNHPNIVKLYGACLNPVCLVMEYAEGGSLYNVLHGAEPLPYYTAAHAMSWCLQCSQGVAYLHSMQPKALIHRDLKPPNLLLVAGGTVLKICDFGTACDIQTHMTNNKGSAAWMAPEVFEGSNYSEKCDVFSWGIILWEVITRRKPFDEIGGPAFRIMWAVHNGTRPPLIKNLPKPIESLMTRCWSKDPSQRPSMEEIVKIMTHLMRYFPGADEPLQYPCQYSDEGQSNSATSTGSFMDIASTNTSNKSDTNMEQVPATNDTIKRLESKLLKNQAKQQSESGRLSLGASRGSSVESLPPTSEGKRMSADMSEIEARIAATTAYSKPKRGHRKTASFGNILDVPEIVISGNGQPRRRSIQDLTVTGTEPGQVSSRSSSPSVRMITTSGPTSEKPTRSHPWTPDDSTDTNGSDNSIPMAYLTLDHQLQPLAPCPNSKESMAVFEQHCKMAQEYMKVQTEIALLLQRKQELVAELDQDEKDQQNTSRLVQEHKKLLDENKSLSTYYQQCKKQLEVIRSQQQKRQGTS
Sequence (Q15750 whole entry, looked up): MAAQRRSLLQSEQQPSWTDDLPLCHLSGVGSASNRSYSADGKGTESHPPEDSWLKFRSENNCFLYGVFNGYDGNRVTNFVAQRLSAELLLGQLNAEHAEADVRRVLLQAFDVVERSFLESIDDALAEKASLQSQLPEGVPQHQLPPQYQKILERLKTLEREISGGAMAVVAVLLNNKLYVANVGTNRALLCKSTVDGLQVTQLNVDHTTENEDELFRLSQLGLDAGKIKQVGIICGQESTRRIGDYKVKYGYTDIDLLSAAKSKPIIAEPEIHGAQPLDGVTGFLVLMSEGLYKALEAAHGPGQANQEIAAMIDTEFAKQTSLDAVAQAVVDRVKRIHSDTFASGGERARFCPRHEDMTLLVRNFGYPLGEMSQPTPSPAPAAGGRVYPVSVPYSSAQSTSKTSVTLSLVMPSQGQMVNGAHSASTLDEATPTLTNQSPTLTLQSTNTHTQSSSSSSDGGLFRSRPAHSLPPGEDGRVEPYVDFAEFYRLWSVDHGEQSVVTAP
Assay: radiometric filter-binding kinase assay
Conditions: compound 10.0 µM
Lab note - cut at 70% for residual activity: Met if strictly below, Not met if not.

Here's what some known entries look like.
N#Cc1c(C2CCNCC2)cc(-c2c(O)cccc2OCC2CC2)nc1N :: Met
COc1cc(C(=O)N2CCOCC2)c(F)cc1Nc1ncc(C(F)(F)F)c(NC2CC2)n1 :: Met
NC(=O)c1cc(-c2ccnc(NC3CCCCC3)c2)nc(N2CCNCC2)c1 :: Met
C=CC(=O)N1CCC[C@@H](n2nc(-c3ccc(Oc4ccccc4)cc3)c3c(N)ncnc32)C1 :: Met
CCCC(CCC)C(=O)O :: Not met
Oc1ccc(/C=C/c2cc(O)cc(O)c2)cc1 :: Not met
O=C(N[C@@H](COc1ccc2[nH]c(=O)[nH]c2c1)c1ccccc1)c1cccn(Cc2ccc(F)c(F)c2)c1=O :: Met
COC(=O)/C=C/C(=O)OC :: Not met

Confirm or reject: residual activity of O=S(=O)(c1ccc(F)c2nonc12)N1CCN(c2ncc(C(F)(F)F)cc2Cl)CC1 lies strictly below 70%
Not met

Let us now turn to Cc1nc(-c2ccc(OCC(C)C)c(C#N)c2)sc1C(=O)O
Not met

Next: NC1(c2ccc(-c3nc4ccn5c(=O)[nH]nc5c4cc3-c3ccccc3)cc2)CCC1
Met

Let us now turn to NC(=O)c1c(NC(=O)C2CC2)sc2c1CCCC2
Met

Queued: CCOC(=O)c1ccc(N2NC(=O)/C(=C/c3ccc([N+](=O)[O-])o3)C2=O)cc1
Not met

Record: NS(=O)(=O)OC[C@@H]1C[C@@H](n2ccc3c(N[C@H]4CCc5ccccc54)ncnc32)C[C@@H]1O
Not met

Then this molecule: CC(C)C[C@H](NC(=O)CNC(=O)c1cc(Cl)ccc1Cl)B1OC(=O)CC(CC(=O)O)(C(=O)O)O1 (stereo partly drawn)
Not met

Request: O=c1c(O)c(-c2ccc(O)c(O)c2)oc2cc(O)c(O)c(O)c12
Met

----------
residual activity by entry:
Biological target: MAP3K1 (human) (UniProt Q13233)
Sequence (Q13233 whole entry, looked up): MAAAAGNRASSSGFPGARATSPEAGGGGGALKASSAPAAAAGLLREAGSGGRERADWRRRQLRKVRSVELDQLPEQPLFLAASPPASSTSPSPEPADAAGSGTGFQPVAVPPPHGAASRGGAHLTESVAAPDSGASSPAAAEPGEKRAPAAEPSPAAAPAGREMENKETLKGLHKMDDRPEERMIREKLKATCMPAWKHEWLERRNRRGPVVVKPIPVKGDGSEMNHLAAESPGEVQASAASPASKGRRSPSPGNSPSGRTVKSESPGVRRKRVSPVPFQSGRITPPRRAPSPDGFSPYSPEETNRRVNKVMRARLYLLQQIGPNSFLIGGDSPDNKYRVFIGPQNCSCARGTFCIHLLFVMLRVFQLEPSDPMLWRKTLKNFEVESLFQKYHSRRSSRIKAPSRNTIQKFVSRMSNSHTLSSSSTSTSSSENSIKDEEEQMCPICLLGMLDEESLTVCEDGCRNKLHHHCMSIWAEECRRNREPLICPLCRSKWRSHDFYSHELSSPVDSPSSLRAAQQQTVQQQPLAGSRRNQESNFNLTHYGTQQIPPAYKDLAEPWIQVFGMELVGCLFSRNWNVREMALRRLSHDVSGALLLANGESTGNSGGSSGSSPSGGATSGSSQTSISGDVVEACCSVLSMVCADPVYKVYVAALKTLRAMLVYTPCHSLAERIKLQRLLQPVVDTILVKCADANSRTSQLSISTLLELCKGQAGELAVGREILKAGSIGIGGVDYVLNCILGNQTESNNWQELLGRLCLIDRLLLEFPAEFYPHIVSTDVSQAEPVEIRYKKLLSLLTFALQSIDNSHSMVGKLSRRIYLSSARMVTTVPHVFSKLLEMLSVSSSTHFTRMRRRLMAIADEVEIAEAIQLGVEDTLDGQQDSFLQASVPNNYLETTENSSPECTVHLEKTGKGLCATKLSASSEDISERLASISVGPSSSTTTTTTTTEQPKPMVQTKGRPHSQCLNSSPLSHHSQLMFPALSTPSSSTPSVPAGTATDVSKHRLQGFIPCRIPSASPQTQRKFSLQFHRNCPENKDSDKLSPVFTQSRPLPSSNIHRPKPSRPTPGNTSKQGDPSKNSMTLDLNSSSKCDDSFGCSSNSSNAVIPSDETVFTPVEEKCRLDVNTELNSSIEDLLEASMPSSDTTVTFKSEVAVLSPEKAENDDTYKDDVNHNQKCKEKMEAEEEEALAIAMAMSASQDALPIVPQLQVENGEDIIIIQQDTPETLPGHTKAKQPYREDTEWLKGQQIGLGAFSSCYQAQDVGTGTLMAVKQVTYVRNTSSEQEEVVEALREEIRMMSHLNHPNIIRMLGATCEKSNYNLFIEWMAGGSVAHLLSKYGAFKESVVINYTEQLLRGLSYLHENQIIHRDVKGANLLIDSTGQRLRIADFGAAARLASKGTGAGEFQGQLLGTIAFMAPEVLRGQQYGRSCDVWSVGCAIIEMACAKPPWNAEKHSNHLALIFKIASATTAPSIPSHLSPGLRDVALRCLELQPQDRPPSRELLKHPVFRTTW
Test: radiometric filter-binding kinase assay
Details: compound 1.0 µM
Please reply with the bare figure in % and do not write the unit itself.

Cc1cccc(-c2nn(C(=S)Nc3ccccc3)cc2-c2ccnc3ccccc23)n1 :: 111

Given the compound Oc1ccc2ccccc2c1SSc1c(O)ccc2ccccc12 , what is its reported residual activity?
64

Please give the result for O=C(Nc1nc2cc(C(F)(F)F)cc(NC3CC3)n2n1)c1cccnc1 too.
91

Then this compound: NC(=O)c1ccc(-c2ccc(Oc3cncc4sc(-c5nn[nH]n5)cc34)cc2)cc1
99

Now the same for CC(C)(C#N)c1ccc(N2C(=O)OCc3cnc4ccc(-c5cnc6ccccc6c5)cc4c32)cc1
69

// same read-out, input: COc1cc(O)c2c(c1)/C=C/C[C@H](O)[C@H](O)C(=O)/C=C\C[C@H](C)OC2=O
92

Next up: COc1cc(C(=O)N2CCOCC2)c(F)cc1Nc1ncc(C(F)(F)F)c(NC2CC2)n1
90

Then this compound: CN(C)C/C=C/C(=O)Nc1cccc(C(=O)Nc2ccc(Nc3nccc(-c4cccnc4)n3)cc2)c1
100

Moving on to the next compound: CNc1nc(-c2ccc3c(N)n[nH]c3c2)cc(N2C[C@@H](C(=O)NC3CCCCC3)CC[C@H]2C)n1
87

Likewise for CNC(=O)C1[C@H]2O[C@@](C)([C@@H]1N)n1c3ccccc3c3c4c(c5c6ccccc6n2c5c31)C(=O)NC4 (stereo not given in full) ?
23
